Source listed as patent US6800630B2.

Tested on: human squamous lung cancer Ma44
Assay: In vitro cell growth inhibition test, MTT assay
Format: cell-based
Settings: MTT assay 4 days after compound addition
ASSAY ENDPOINT: IC50 Ma44 (µg/mL)
# output: bare number, implied unit µg/mL

Quote human squamous lung cancer Ma44 IC50 Ma44 for entry CCNC(=Nc1nc(C)ncc1CSc1nnc(-c2ccc([N+](=O)[O-])cc2)o1)SC .
0.056

Specify the recorded IC50 Ma44 for CCNC(=Nc1nc(C)ncc1CSc1nnc(-c2ccc([N+](=O)[O-])cc2)o1)OCC , system: human squamous lung cancer Ma44.
0.0091

Look up human squamous lung cancer Ma44 data: IC50 Ma44 of CCCNC(=Nc1nc(C)ncc1CSc1nnc(-c2ccc(C)cc2)o1)SC , then report it.
0.0241

Answer briefly: IC50 Ma44 recorded on human squamous lung cancer Ma44 for CCCSC(=Nc1nc(C)ncc1CSc1nnc(-c2ccc(N)cc2)o1)NCC
0.0136

Fetch value of IC50 Ma44 on human squamous lung cancer Ma44 for CCNC(=Nc1nc(C)ncc1CSc1nnc(-c2ccc([N+](=O)[O-])cc2)o1)OC(C)C .
0.0069

Output reported IC50 Ma44 of the molecule CCCSC(=Nc1nc(C)ncc1CSc1nnc(-c2ccc([N+](=O)[O-])cc2)o1)NCC on human squamous lung cancer Ma44.
0.0341

Provide measured IC50 Ma44 on human squamous lung cancer Ma44 for CCNC(=Nc1nc(C)ncc1CSc1nnc(-c2ccc(N)cc2)o1)SCC please.
0.032

Find IC50 Ma44 for CCCNC(=Nc1nc(C)ncc1CSc1nnc(-c2ccc([N+](=O)[O-])cc2)o1)NN(C)C on human squamous lung cancer Ma44 and write it down.
0.0004

====

Test system: human squamous lung cancer Ma44
Assay: In vitro cell growth inhibition test, MTT assay
Assay type: cell-based
Settings: MTT assay 4 days after compound addition
Threshold 0.01 µg/mL: IC50 Ma44 strictly smaller gives fulfilled, otherwise not fulfilled.

CCCSC(=Nc1nc(C)ncc1CSc1nnc(-c2ccc([N+](=O)[O-])cc2)o1)NC; fulfilled
CCNC(=Nc1nc(C)ncc1CSc1nnc(-c2ccc([N+](=O)[O-])cc2)o1)OC; not fulfilled
CCNC(=Nc1nc(C)ncc1CSc1nnc(-c2ccc(N)cc2)o1)SC; not fulfilled
CCSC(=Nc1nc(C)ncc1CSc1nnc(-c2ccc([N+](=O)[O-])cc2)o1)NC; not fulfilled
CCCSC(=Nc1nc(C)ncc1CSc1nnc(-c2ccc(N)cc2)o1)NC; not fulfilled
C#CCNC(=Nc1nc(C)ncc1CSc1nnc(-c2ccc([N+](=O)[O-])cc2)o1)NC [Compound C-2, reference compound]; fulfilled
CCCNC(=Nc1nc(C)ncc1CSc1nnc(-c2ccc(N)cc2)o1)SC; fulfilled
CCNC(=Nc1nc(C)ncc1CSc1nnc(-c2ccc([N+](=O)[O-])cc2)o1)SCC; not fulfilled
CCCNC(=Nc1nc(C)ncc1CSc1nnc(-c2ccc([N+](=O)[O-])cc2)o1)SC; not fulfilled
CNC(=Nc1nc(C)ncc1CSc1nnc(-c2ccc([N+](=O)[O-])cc2)o1)NCC(F)(F)F [Compound C-1, reference compound]; not fulfilled

Consider the compound CNC(=Nc1nc(C)ncc1CSc1nnc(-c2ccc([N+](=O)[O-])cc2)o1)OC(C)C . Is its IC50 Ma44 strictly less than 0.01 µg/mL?
fulfilled

====

Tested on: human squamous lung cancer RERF-RC-AI
Test: In vitro cell growth inhibition test, MTT assay
Type: cell-based
Conditions: MTT assay 4 days after compound addition
ASSAY ENDPOINT: IC50 RERF-LC-AI (µg/mL)
Hi! Could you send only the number? It should be in µg/mL, unit omitted.

CCCSC(=Nc1nc(C)ncc1CSc1nnc(-c2ccc(N)cc2)o1)NCC; 0.0073
CCCSC(=Nc1nc(C)ncc1CSc1nnc(-c2ccc(N)cc2)o1)NC; 0.0065
CCCNC(=Nc1nc(C)ncc1CSc1nnc(-c2ccc(C)cc2)o1)SC; 0.0132
CCNC(=Nc1nc(C)ncc1CSc1nnc(-c2ccc(N)cc2)o1)SCC; 0.012
CCCSC(=Nc1nc(C)ncc1CSc1nnc(-c2ccc([N+](=O)[O-])cc2)o1)NC; 0.0013
CCSC(=Nc1nc(C)ncc1CSc1nnc(-c2ccc([N+](=O)[O-])cc2)o1)NC; 0.033
CCNC(=Nc1nc(C)ncc1CSc1nnc(-c2ccc([N+](=O)[O-])cc2)o1)OC; 0.031
CCNC(=Nc1nc(C)ncc1CSc1nnc(-c2ccc([N+](=O)[O-])cc2)o1)OCC; 0.0093

State measured IC50 RERF-LC-AI of the molecule CCCNC(=Nc1nc(C)ncc1CSc1nnc(-c2ccc([N+](=O)[O-])cc2)o1)SC with human squamous lung cancer RERF-RC-AI.
0.03

Report IC50 RERF-LC-AI from human squamous lung cancer RERF-RC-AI testing of CCCNC(=Nc1nc(C)ncc1CSc1nnc(-c2ccc([N+](=O)[O-])cc2)o1)NN(C)C
0.0004

Jot down IC50 RERF-LC-AI (human squamous lung cancer RERF-RC-AI) of CCCSC(=Nc1nc(C)ncc1CSc1nnc(-c2ccc([N+](=O)[O-])cc2)o1)NCC .
0.0278

Give IC50 RERF-LC-AI for CCNC(=Nc1nc(C)ncc1CSc1nnc(-c2ccc([N+](=O)[O-])cc2)o1)SCC tested on human squamous lung cancer RERF-RC-AI.
0.015
